Source of measurements: the nanobody polyreactivity screen of Harvey et al. (2022)

# assay name: yeast display, Sf9 membrane polyspecificity reagent, FACS + sequencing; frameworks hold sequencing errors
reported property: polyreactivity (PSR sort gate)

Some solved entries appear below for comparison.
{"columns": ["input sequence", "polyreactivity (PSR sort gate)"],
 "data": [
  ["QVQLVVSGGGLVQAGGSLRLSCAASGSIFRYYAMGWFRQAPGQERELVASITRGGTSTYYADSVKGRFTISRDNAKNTVYLQMNSLKPDDTAVYYCAAKGYLSRYDNWGLGTQVTVSS", "high polyreactivity"],
  ["QVQLVESGGGLVQAGGSLRLSCAASGNTFKTNAMGWYRQAPGKERELVAAISSSGSTYYADSVKGRFTISRDNAKNTVYLQMNSLKPEDTAVYYCAVTYRRFYYWGQGTQVTVSS", "high polyreactivity"],
  ["QVQLVESGGGLVQAGGSLRLSCAASGSIFFSNTMGWYRQAPGKERELVASIRETAGSTNYADSLKGRFTISRDYAKITVYLQMHSLKPEDTAVYYCAARYSPTRYHYGYWGQGTQVTVSS", "low polyreactivity"],
  ["QVQLVESGGGIVQAGGSLRLSCAASGLTFPPNAMGWYRPAPGKEREFVAVISSGGGSTYYADSVKGRFTISRDNAKNTVYSQMNSLKPEDTAVYYCATEYQDGDTEYYYWGQGTQVTVSS", "low polyreactivity"]
]}

Now, please, on to the next sequence.
For QVQLVESGGGLVQAGGSLRLSCAASGRILPYNVMGWFRQARGKEREFVAAITGSGGDTYYADSVKGRFTISRDNAKNTVYLQMNSLKPEDTAVYYCAAAPYIGGSFGQTPGSGYWGQGTQVTVSS , what is its reported polyreactivity (PSR sort gate)?
low polyreactivity
